# experiment: self-splicing fitness, log relative to wild type (ln ratio); higher = more splicing; Tetrahymena group I intron in knt gene, E. coli kanamycin selection, DiMSum; sequences stand for … in CUCUCU…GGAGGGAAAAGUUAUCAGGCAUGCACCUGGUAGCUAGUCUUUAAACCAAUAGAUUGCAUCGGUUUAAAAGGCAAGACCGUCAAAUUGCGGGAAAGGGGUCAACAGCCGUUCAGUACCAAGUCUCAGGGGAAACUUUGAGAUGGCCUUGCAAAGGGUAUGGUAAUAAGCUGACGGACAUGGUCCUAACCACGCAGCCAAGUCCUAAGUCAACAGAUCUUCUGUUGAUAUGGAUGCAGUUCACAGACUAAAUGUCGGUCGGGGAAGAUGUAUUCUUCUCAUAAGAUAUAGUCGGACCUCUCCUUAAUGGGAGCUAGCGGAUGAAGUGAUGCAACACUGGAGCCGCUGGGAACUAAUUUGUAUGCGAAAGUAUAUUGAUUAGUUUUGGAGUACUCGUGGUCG;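 note: selection with 25 µg/mL kanamycin versus none on LB agar overnight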
# condition.notes: 37 °C
Returns rule met if the recorded self-splicing fitness (ln) is greater than or equal to -2, and rule not met otherwise.

residue_codes=AAACAGCAAUAUUACGCUGA answer_label="rule met"
residue_codes=UUGGAGCAAUAUUACGAUUG answer_label="rule not met"
residue_codes=UGAAAGCAAUAUUACGUAUU answer_label="rule not met"
residue_codes=CGUCAGCAAUAUUACGAUAA answer_label="rule met"
residue_codes=GAGCAGCAAUAUUACGGAAC answer_label="rule not met"
residue_codes=GCCAAGCAAUAUUACGCUAC answer_label="rule not met"
residue_codes=GUAUAGCAAUAUUACGGAUU answer_label="rule met"
residue_codes=ACAGAGCAAUAUUACGUUUC answer_label="rule not met"
residue_codes=AUUCAGCAAUAUUACGCUUG answer_label="rule met"
residue_codes=UUACAGCAAUAUUACGACCA answer_label="rule met"
residue_codes=GCGAAGCAAUAUUACGGGGA answer_label="rule not met"
residue_codes=GCACAGCAAUAUUACGUCCU answer_label="rule met"
residue_codes=CAGAAGCAAUAUUACGUCGA answer_label="rule met"
residue_codes=CCGUAGCAAUAUUACGUAGC answer_label="rule not met"
residue_codes=GAGCAGCAAUAUUACGAUCC answer_label="rule met"

src = the supplement of paper PMC7877785
